# Measurement Setup: in methanol, 322.95 K

| Structure As Smiles | solubility (mole fraction) |
| --- | --- |
| Nc1ccc(Cl)nn1 | 0.00824 |

###

# Measurement Setup: in acetone, 323.15 K

| Structure As Smiles | solubility (mole fraction) |
| --- | --- |
| Nc1ccc(Cl)nn1 | 0.00791 |

###

# Measurement Setup: in DMF, 313.35 K

| Structure As Smiles | solubility (mole fraction) |
| --- | --- |
| Nc1ccc(Cl)nn1 | 0.0522 |

###

# Measurement Setup: in acetone, 303.15 K
Quantity: solubility (mole fraction)

| Structure As Smiles | Quantity | Recorded Result |
| --- | --- | --- |
| Nc1ccc(Cl)nn1 | solubility (mole fraction) | 0.00423 |
